Assay: Esmolol solubility in various excipients
Type: physicochemical
Conditions: water; read-out: Sat. Conc.
Excerpt: Knowing the solubility of a drug in different excipients and chemical enhancers is important in optimizing the saturation solubility of the drug in topical and transdermal formulations. Here below is a table (Table 1) showing the solubility of esmolol in several excipients and chemical enhancers. The solubility of Esmolol was higher in hydrophilic excipients and lower in the more lipophilic excipients. […]
parameter_measured: solubility thermodynamic (mg/mL)
Reply numerically in mg/mL, unit not repeated.

Data request: Dear colleague, I am looking for the recorded solubility thermodynamic of the following molecule: COC(=O)CCc1ccc(OCC(O)CNC(C)C)cc1 (stereo not shown)
Data returned: 704
